Readings of pIC50 for the listed compounds
system: Hedgehog pathway activation on 10T1/2/Smo#3 cells (C3H10T1/2 cells transfected with human Smoothened receptor); experiment: Hedgehog pathway activation on 10T1/2/Smo#3 cells measured by ALP activity; type: cell-based; conditions: Mus musculus, C3H 10T1/2, 10T1/2/Smo#3 cells, hShh activation, ALP activity; read-out: 10T1/2/Smo#3 ALP activity (hShh Activation)
pIC50: −log10 of the molar value.

Solved entries (count: 3):
Cc1ccc(-c2cn3nc(-c4cccnc4C(F)(F)F)ccc3n2)cc1NC(=O)C1(C)CC1: > 6.52
Cc1c(-c2ccccc2)nc2ccc(N3CCN(C(=O)OC(C)(C)C)CC3)nn12: 4.52 to 5.52
Cc1ccc(-c2cn3nc(C4CC4)ccc3n2)cc1NC(=O)C(C)(C)C: > 6.52

# next compound below
Request: Report pIC50, nothing else, for this compound: CCN[C@@H]1CCN(c2ccc3nc(-c4ccc(C)c(NC(=O)C(C)(C)C)c4)cn3n2)C1
Response: > 6.52

###

Readings of IC50 for the listed molecules
Test system: Hedgehog pathway activation on 10T1/2/Smo#3 cells (C3H10T1/2 cells transfected with human Smoothened receptor)
Test: Hedgehog pathway activation on 10T1/2/Smo#3 cells measured by ALP activity
Format: cell-based
Conditions: Mus musculus, C3H 10T1/2, 10T1/2/Smo#3 cells, hShh activation, ALP activity; read-out: 10T1/2/Smo#3 ALP activity (hShh Activation)
Description: Hedgehog conditioned media was obtained by transfecting 293H cells with the full length gene encoding human Sonic Hedgehog (hShh) inserted into the pCMV6 expression vector, which contains a neomycin selectable marker and expresses the protein of interest with a C-terminal FLAG affinity tag. […] Their inhibitory activity against Hedgehog pathway activation on 10T1/2/Smo#3 cells as measured by ALP activity and Shh Light II reporter cells as measured by luciferase activity is shown in Table 1 below. […]

Solved entries (count: 3):
CC(C)(C)C(=O)Nc1cc(-c2cn3nc(-c4cc(C(F)(F)F)ccc4F)ccc3n2)ccc1C(F)(F)F [Example 207]: < 300 nM
CCCCS(=O)(=O)c1ccc2nc(-c3ccc(C)c(NC(=O)C(C)(C)C)c3)cn2n1 [Example 130]: 300 to 3000 nM
O=C(Nc1cc(-c2cn3nc(-c4cccnc4C(F)(F)F)ccc3n2)ccc1Cl)N1CC(F)(F)C1 [Example 669]: < 300 nM

# next molecule below
Request: Report IC50, nothing else, for this molecule: Cc1ccc(-c2cn3nc(-c4cc(C#N)ccc4C)ccc3n2)cc1NC(=O)C(C)(C)C [Example 450]
Response: < 300 nM

###

System: Hedgehog pathway activation on 10T1/2/Smo#3 cells (C3H10T1/2 cells transfected with human Smoothened receptor)
Experiment: Hedgehog pathway activation on 10T1/2/Smo#3 cells measured by ALP activity
Assay type: cell-based
Settings: Mus musculus, C3H 10T1/2, 10T1/2/Smo#3 cells, hShh activation, ALP activity; read-out: 10T1/2/Smo#3 ALP activity (hShh Activation)
Text: Hedgehog conditioned media was obtained by transfecting 293H cells with the full length gene encoding human Sonic Hedgehog (hShh) inserted into the pCMV6 expression vector, which contains a neomycin selectable marker and expresses the protein of interest with a C-terminal FLAG affinity tag. […] Their inhibitory activity against Hedgehog pathway activation on 10T1/2/Smo#3 cells as measured by ALP activity and Shh Light II reporter cells as measured by luciferase activity is shown in Table 1 below. […]
Readings of IC50 for the listed compounds

CCCC(C)(C)C(=O)Nc1cc(-c2cn3nc(-c4cccnc4C(F)(F)F)ccc3n2)c(F)cc1Cl [Example 662]: < 0.3 µM
COc1ccc2nc(-c3ccc(C)c(NC(=O)C(C)(C)C)c3)c(C)n2n1 [Example 121]: 0.3 to 3 µM
Cc1ccc(-c2cn3nc(-c4cc(C(N)=NO)ccc4Cl)ccc3n2)cc1NC(=O)C(C)(C)C [compound 569]: < 0.3 µM
CCOc1ccc2nc(-c3ccc(C(F)(F)F)c(-c4ccccn4)c3)cn2n1 [Example 218]: 0.3 to 3 µM
COc1ccc2nc(-c3ccc(OC(F)(F)F)c(NC(=O)C(C)(C)C)c3)cn2n1 [Example 247]: < 0.3 µM

Request: Report IC50, nothing else, for this compound: CCOC(=O)CCCCCOc1ccc(-c2ccc3nc(-c4ccc(C)c(NC(=O)C(C)(C)C)c4)cn3n2)c(C(F)(F)F)c1 [Example 412]
Response: 0.3 to 3 µM

Request: Report IC50, nothing else, for this compound: CC(C)(C)C(=O)Nc1cc(-c2cn3nc(-c4nccs4)ccc3n2)ccc1C(F)(F)F [Example 148]
Response: 0.3 to 3 µM

Request: Report IC50, nothing else, for this compound: Cc1ccc(-c2cn3nc(N4CCOCC4)ccc3n2)cc1NC(=O)C(C)(C)C [Example 128]
Response: 0.3 to 3 µM
